Molecular target: T1, MltD (P. aeruginosa PAO1, UniProt Q9I2T2 1-534)
T1 sequence (looked up): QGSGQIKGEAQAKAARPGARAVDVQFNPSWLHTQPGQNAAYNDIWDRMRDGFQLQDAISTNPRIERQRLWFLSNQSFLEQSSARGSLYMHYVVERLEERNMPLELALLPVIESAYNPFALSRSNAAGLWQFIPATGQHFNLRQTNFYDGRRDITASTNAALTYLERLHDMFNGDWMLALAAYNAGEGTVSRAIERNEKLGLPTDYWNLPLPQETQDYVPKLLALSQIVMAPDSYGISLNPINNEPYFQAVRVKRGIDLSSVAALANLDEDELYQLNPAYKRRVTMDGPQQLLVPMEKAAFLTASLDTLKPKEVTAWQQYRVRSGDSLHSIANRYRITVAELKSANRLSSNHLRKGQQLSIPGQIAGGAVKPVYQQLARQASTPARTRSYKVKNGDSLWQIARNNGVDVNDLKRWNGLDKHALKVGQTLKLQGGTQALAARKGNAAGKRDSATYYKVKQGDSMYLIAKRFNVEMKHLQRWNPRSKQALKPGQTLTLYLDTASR
Experiment: SPR; RlpA-Δ81 or RlpA-SPOR amine-coupled to its own CM4 chip, partner as analyte; 25 °C; 10 mM HEPES pH 7.4, 150 mM NaCl, 3 mM EDTA, 0.005% P20; alternate fitting model for PBP1a on RlpA-SPOR
Conditions: both partners purified
readout_name: Kd (nM)
Number only, in nM; omit the unit.

Sample RlpA-SPOR (domain or fragment, P. aeruginosa PAO1, UniProt Q9X6V6 264-342, looked up) ADGLYLQVGAFANPDAAELLKAKLSGVTAAPVFISSVVRNQQILHRVRLGPIGSADEVSRTQDSIRVANLGQPTLVRPD ; Kd observed: 200
